- method_summary: Simulated intestinal fluid (SIF) stability in the presence of various enzymes
- Assay type: in vitro ADME
- condition_description: SIF + Pancreatin, 30 min, 1 μM
property_label: % Remaining of Initial (n = 1)

[ask] Reported % Remaining of Initial (n = 1) for CC/C=C\C/C=C\C/C=C\C/C=C\C/C=C\CCCC(=O)OCCNC(=O)CCCCCCCCCCCCCCC [Compound I-5] : what is it?
[reply] <1.0%

[ask] Reported % Remaining of Initial (n = 1) for CCCCCCCCCCCCCCCC(=O)NCCOC(=O)CCC(=O)OCC(COC(=O)CCC)OC(=O)CCC (stereo not drawn) [Compound I-11] : what is it?
[reply] <1.0%

[ask] Reported % Remaining of Initial (n = 1) for CCCCCCCCCCCCCCCC(=O)NCCOC(=O)CCC(=O)OCC(COC(=O)CCCCCCC)OC(=O)CCCCCCC (stereo not drawn) [Compound I-3, PEA-Succinate-Glycerol-Di-Caprylic] : what is it?
[reply] <1.0%
